target: bovine serum albumin (BSA) (Bos taurus); construct: bovine serum-derived lyophilized powder, Sigma-Aldrich; purchased Sigma-Aldrich; host or cells: purified from bovine serum; assay: Luminescence intensity measurement with bovine serum albumin; format: biochemical; conditions: total luminescence over 60 seconds, normalized against native coelenterazine in HSA set to 1.0; 10 µM substrate solution, 10 mM PB buffer pH 7.4
MEASURED QUANTITY: BSA Luminescence intensity

{"columns": ["MOLECULE", "MEASURED QUANTITY", "REPORTED RESULT"],
 "data": [
  ["COc1ccc(/C=C/c2cn3c(=O)c(Cc4ccccc4)nc-3c[nH]2)cc1", "BSA Luminescence intensity", 19.2]
]}

[P] O=c1c(Cc2ccccc2)nc2c[nH]c(/C=C/c3ccccc3)cn1-2
[Q] COc1ccc(-c2cn3c(=O)c(Cc4ccccc4)nc-3c[nH]2)cc1 [Control compound 3, reference compound]
Enquiry: Hi! Which is lower in terms of BSA Luminescence intensity, the first one P or the second one Q ? To answer, give the label that identifies your chosen option.
Return: P

[A] COCCCOc1ccc(-c2cn3c(=O)c(Cc4ccccc4)nc-3c(Cc3ccccc3)[nH]2)cc1 [BBlue2.3, reference compound]
[B] COCCCOc1ccc(-c2cn3c(=O)c(C)nc-3c[nH]2)cc1
[C] O=c1c(Cc2ccccc2)nc2c[nH]c(/C=C/c3ccc(-c4ccccc4)cc3)cn1-2
[D] COCCCOc1ccc(-c2cn3c(=O)c(Cc4ccccc4)nc-3c[nH]2)cc1
Enquiry: In this exercise, place the 4 molecules in ascending sequence of their recorded BSA Luminescence intensity. Return the labels ranked in the requested order, please.
Return: B, C, D, A
(B: 3.1, C: 5.2, D: 11.9, A: 34.3)

###

target: bovine serum albumin (BSA) (Bos taurus, UniProt P02769); construct: bovine serum-derived lyophilized powder, Sigma-Aldrich; purchased Sigma-Aldrich; host or cells: purified from bovine serum; assay: Luminescence intensity measurement with bovine serum albumin; assay type: biochemical; conditions: total luminescence over 60 seconds, normalized against native coelenterazine in HSA set to 1.0; 10 µM substrate solution, 10 mM PB buffer pH 7.4
Sequence (P02769 25-607): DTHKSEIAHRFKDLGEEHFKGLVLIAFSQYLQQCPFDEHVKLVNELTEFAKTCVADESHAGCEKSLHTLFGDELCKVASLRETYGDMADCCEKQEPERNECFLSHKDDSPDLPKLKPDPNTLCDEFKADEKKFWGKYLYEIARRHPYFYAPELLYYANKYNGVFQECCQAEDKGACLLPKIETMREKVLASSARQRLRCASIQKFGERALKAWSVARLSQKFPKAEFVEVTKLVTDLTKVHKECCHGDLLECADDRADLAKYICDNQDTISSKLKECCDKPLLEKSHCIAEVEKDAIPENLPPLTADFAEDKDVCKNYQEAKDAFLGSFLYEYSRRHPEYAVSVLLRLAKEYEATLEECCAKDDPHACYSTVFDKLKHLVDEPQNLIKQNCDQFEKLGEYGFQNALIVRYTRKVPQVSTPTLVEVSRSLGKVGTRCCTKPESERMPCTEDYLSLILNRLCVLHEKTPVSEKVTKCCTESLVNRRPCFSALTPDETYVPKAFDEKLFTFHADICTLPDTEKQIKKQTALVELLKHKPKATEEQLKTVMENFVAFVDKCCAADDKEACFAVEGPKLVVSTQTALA
MEASURED QUANTITY: BSA Luminescence intensity

Would you please look over these solved cases?
{"columns": ["MOLECULE", "TARGET DESC", "BSA Luminescence intensity"],
 "data": [
  ["O=c1c(Cc2ccc(O)cc2)nc2c(Cc3ccccc3)[nH]c(-c3ccc(O)cc3)cn1-2 [NCTZ, reference compound]", "bovine serum albumin (BSA) (Bos taurus, UniProt P02769)", 3.9],
  ["COc1ccc(-c2cn3c(=O)c(C)nc-3c[nH]2)cc1 [MCLA™, reference compound]", "bovine serum albumin (BSA) (Bos taurus, UniProt P02769)", 1.8]
]}

[1] O=c1c(Cc2ccccc2)nc2c(Cc3ccccc3)[nH]c(-c3ccccc3)cn1-2 [DeepBlueC™, reference compound]
[2] O=c1c(Cc2ccccc2)nc2c[nH]c(-c3ccc(O)cc3)cn1-2 [Control compound 2, reference compound]
Enquiry: Param pair: 1 , 2 . Output: the one whose BSA Luminescence intensity is numerically greater. To answer, give the label that identifies your chosen option.
Return: 2
(2: 11.2, 1: 7.6)

###

target: human serum albumin (HSA) (Homo sapiens); construct: human serum-derived lyophilized powder, Fatty acid free, Globulin free, Sigma-Aldrich; purchased Sigma-Aldrich; host or cells: purified from human serum; test: Luminescence intensity measurement with human serum albumin; assay type: biochemical; settings: total luminescence over 60 seconds, normalized against native coelenterazine in HSA set to 1.0; 10 µM substrate solution, 10 mM PB buffer pH 7.4
MEASURED QUANTITY: HSA Luminescence intensity

Would you please look over these solved cases?
{"columns": ["MOLECULE", "HSA Luminescence intensity"],
 "data": [
  ["O=c1c(Cc2ccccc2)nc2c[nH]c(-c3ccc(O)cc3)cn1-2 [Control compound 2, reference compound]", 13.7],
  ["COCCCOc1ccc(-c2cn3c(=O)c(C)nc-3c[nH]2)cc1", 14.2],
  ["COc1ccc(-c2cn3c(=O)c(C)nc-3c[nH]2)cc1 [MCLA™, reference compound]", 14.1],
  ["O=c1c(Cc2ccccc2)nc2c[nH]c(/C=C/c3ccccc3)cn1-2", 61.3]
]}

[a] O=c1c(Cc2ccccc2)nc2c[nH]c(/C=C/c3ccc(-c4ccccc4)cc3)cn1-2
[b] COCCCOc1ccc(-c2cn3c(=O)c(Cc4ccccc4)nc-3c(Cc3ccccc3)[nH]2)cc1 [BBlue2.3, reference compound]
[c] O=c1c(Cc2ccccc2)nc2c(Cc3ccccc3)[nH]c(-c3ccccc3)cn1-2 [DeepBlueC™, reference compound]
[d] COCCCOc1ccc(-c2cn3c(=O)c(Cc4ccccc4)nc-3c[nH]2)cc1
Enquiry: Returns the items ordered by HSA Luminescence intensity, from maximum to minimum. Return the labels ranked in the requested order, please.
Return: d, a, b, c
(d: 912, a: 206, b: 51.5, c: 22.1)

###

molecular target: human serum albumin (HSA) (Homo sapiens, UniProt P02768); construct: human serum-derived lyophilized powder, Fatty acid free, Globulin free, Sigma-Aldrich; purchased Sigma-Aldrich; host or cells: purified from human serum; test: Luminescence intensity measurement with human serum albumin; format: biochemical; details: total luminescence over 60 seconds, normalized against native coelenterazine in HSA set to 1.0; 10 µM substrate solution, 10 mM PB buffer pH 7.4
Sequence (P02768 25-609): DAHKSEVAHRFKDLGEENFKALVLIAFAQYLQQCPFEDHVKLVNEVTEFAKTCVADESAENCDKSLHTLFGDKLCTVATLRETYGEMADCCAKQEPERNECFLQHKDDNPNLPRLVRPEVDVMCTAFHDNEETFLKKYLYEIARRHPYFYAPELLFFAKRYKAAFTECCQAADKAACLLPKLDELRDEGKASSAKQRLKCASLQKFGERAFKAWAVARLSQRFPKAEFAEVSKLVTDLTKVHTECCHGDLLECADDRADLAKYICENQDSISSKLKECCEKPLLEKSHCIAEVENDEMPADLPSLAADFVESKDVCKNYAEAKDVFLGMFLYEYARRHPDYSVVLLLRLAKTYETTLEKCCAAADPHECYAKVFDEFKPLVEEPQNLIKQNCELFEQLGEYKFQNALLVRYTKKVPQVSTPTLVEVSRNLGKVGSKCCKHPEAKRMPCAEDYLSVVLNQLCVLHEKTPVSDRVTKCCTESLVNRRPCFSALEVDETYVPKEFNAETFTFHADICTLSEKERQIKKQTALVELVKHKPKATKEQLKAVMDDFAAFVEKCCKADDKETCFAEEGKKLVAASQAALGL
MEASURED QUANTITY: HSA Luminescence intensity

{"columns": ["MOLECULE", "HSA Luminescence intensity"],
 "data": [
  ["O=c1c(Cc2ccc(O)cc2)nc2c(Cc3ccccc3)[nH]c(-c3ccc(O)cc3)cn1-2 [NCTZ, reference compound]", 1.0]
]}

[a] COc1ccc(/C=C/c2cn3c(=O)c(Cc4ccccc4)nc-3c[nH]2)cc1
[b] COc1ccc(-c2cn3c(=O)c(Cc4ccccc4)nc-3c[nH]2)cc1 [Control compound 3, reference compound]
Enquiry: Hi! Which is lower in terms of HSA Luminescence intensity, the first one a or the second one b ? To answer, give the label that identifies your chosen option.
Return: a
